test system: HuVECs; experiment: Endothelial tube formation assay in HuVECs; conditions: 75 nM oligomeric compound, Table 57
In the oligonucleotide strings, read from the 5' end, every base follows the letter of its sugar. An asterisk marks phosphorothioate; unmarked linkages are phosphodiester. Other units and linkages are bracketed, terminal groups are in braces. A string of capitals states the bases alone. e = 2'-O-(2-methoxyethyl) (MOE); [5mC] = 5-methylcytosine
Please provide measured % Activity Relative to UTC (tube formation) for the entries that follow.
One number for each entry, in %.

INSERT INTO results (substance, result_unit, readout_number) VALUES
  ('327900 (antisense e[5mC]*eT*eG*e[5mC]*e[5mC]*eT*eG*eT*e[5mC]*eT*eG*eT*eG*e[5mC]*e[5mC]*eT*eG*e[5mC]*eT*eG*eT) [compound 327900]', '%', 55.2);

For each entry beneath this line, provide reported % Activity Relative to UTC (tube formation).
1. 327922 (antisense eT*e[5mC]*eA*eG*eT*eT*eT*eT*eG*e[5mC]*eA*eT*eG*eG*eA*eT*eT*eT*eG*e[5mC]*eA*e[5mC]*eA) [compound 327922]
2. 327923 (antisense eG*eA*eA*eA*eG*eA*eG*eA*e[5mC]*e[5mC]*eG*eG*eT*eT*e[5mC]*eA*e[5mC]*eT*eG*eT*eG*eA) [compound 327923]
3. 327904 (antisense eA*e[5mC]*eT*e[5mC]*eA*e[5mC]*e[5mC]*eG*eA*e[5mC]*eA*eG*e[5mC]*eG*eT*eT*eG*eA*eA*eT*eG*eT*eT) [compound 327904]
4. 327913 (antisense eA*eA*e[5mC]*e[5mC]*eG*eA*eT*eT*eT*e[5mC]*eA*eA*eA*eT*eG*eG*eT*eG*e[5mC]*eT*eA*eG) [compound 327913]

## Result
[89.7, 48.3, 89.7, 69.0]

----------
system: HeLa cells; experiment: Cell cycle assay in HeLa cells; assay type: cell-based, human; conditions: HeLa cells, 150 nM oligomeric compound, 24 hours, relative to untreated control (UTC = 100)
In the oligonucleotide strings, read from the 5' end, every base follows the letter of its sugar. An asterisk marks phosphorothioate; unmarked linkages are phosphodiester. Other units and linkages are bracketed, terminal groups are in braces. A string of capitals states the bases alone. e = 2'-O-(2-methoxyethyl) (MOE); [5mC] = 5-methylcytosine; d = 2'-deoxy (DNA)
Please provide measured % cells in cell cycle phase G1 for the entries that follow.
Mention the unit after the number when you answer.

INSERT INTO results (substance, result) VALUES
  ('327957 (antisense e[5mC]*eA*e[5mC]*eA*eA*eG*eT*eT*e[5mC]*eG*eG*eA*eT*e[5mC]*eT*eA*e[5mC]*eG*eG*eG*eT*eT) [compound 327957]', '91%'),
  ('327889 (antisense eG*eT*eG*eG*eT*eA*eA*eT*e[5mC]*e[5mC]*e[5mC]*eT*eG*eG*e[5mC]*eA*eA*eT*eG*eT*eG*eA*eT) [compound 327889]', '104%'),
  ('341788 (antisense AGCCAAGCTCAGACGGATCCGA; all 2''-MOE, all phosphorothioate, methylation of C not given here) [compound 341788]', '154%'),
  ('327901 (antisense eT*eG*eA*eG*e[5mC]*eT*eA*e[5mC]*eA*eG*eT*eG*e[5mC]*eT*eT*e[5mC]*eA*eT*e[5mC]*eT*e[5mC]*eA) [compound 327901]', '101%'),
  ('340925 (antisense GTGGTAATCCCTGGCAATGTGAT; sugars from the 5'' end e5 d10 e8, all phosphorothioate, methylation of C not given here) [compound 340925]', '103%');

For each entry beneath this line, provide reported % cells in cell cycle phase G1.
1. 341787 (antisense CACAGGTTAAAGGGTCTCAGGGA; all 2'-MOE, all phosphorothioate, methylation of C not given here) [compound 341787]
2. 338833 (antisense TCGTGCACCTGAGGAGTCTG; all 2'-MOE, all phosphorothioate, methylation of C not given here) [compound 338833]
3. 328744 (antisense e[5mC]*eG*eG*eA*eT*d[5mC]*d[5mC]*dT*dG*dT*dT*dA*d[5mC]*d[5mC]*dT*e[5mC]*eA*e[5mC]*e[5mC]*eA) [compound 328744]
4. 327910 (antisense eT*eG*eA*eT*eA*eG*e[5mC]*e[5mC]*e[5mC]*eT*eG*eT*eA*e[5mC]*eA*eA*eT*eG*e[5mC]*eT*eG*e[5mC]*eT) [compound 327910]
5. 328396 (antisense e[5mC]*eT*eG*eG*eT*dT*dG*dG*dG*dT*dA*dT*dG*dA*dG*eA*e[5mC]*eA*eG*eA) [compound 328396]

## Result
113%
150%
31%
154%
94%

----------
test system: HSL; test: HSL mRNA expression in adipocytes (real-time PCR); format: cell-based, human; settings: differentiating adipocytes transfected with oligomeric compound; Table 75
In the oligonucleotide strings, read from the 5' end, every base follows the letter of its sugar. An asterisk marks phosphorothioate; unmarked linkages are phosphodiester. Other units and linkages are bracketed, terminal groups are in braces. A string of capitals states the bases alone. e = 2'-O-(2-methoxyethyl) (MOE); [5mC] = 5-methylcytosine
Please provide measured HSL mRNA for the entries that follow.

INSERT INTO assay_data (substance, result) VALUES
  ('328118 (antisense eT*eA*eT*eT*eA*eT*e[5mC]*eA*eG*e[5mC]*eA*eT*e[5mC]*eT*eG*e[5mC]*eT*eT*eG*e[5mC]*eA) [compound 328118]', '67 percentage of untreated control (UTC)'),
  ('344268 (antisense ACACAAAUUCGGUUCUACAGGG; all 2''-MOE, all phosphorothioate, methylation of C and T or U not given here) [compound 344268]', '44 percentage of untreated control (UTC)'),
  ('327885 (antisense eA*e[5mC]*eT*eA*e[5mC]*e[5mC]*eT*eG*e[5mC]*eA*e[5mC]*eT*eG*eT*eA*eA*eG*e[5mC]*eA*e[5mC]*eT*eT*eT*eG) [compound 327885]', '57 percentage of untreated control (UTC)');

For each entry beneath this line, provide reported HSL mRNA.
1. 328103 (antisense e[5mC]*e[5mC]*e[5mC]*eA*eA*eT*eA*eT*e[5mC]*eA*eA*eA*e[5mC]*eA*eT*eA*eT*e[5mC]*eA) [compound 328103]
2. 327910 (antisense eT*eG*eA*eT*eA*eG*e[5mC]*e[5mC]*e[5mC]*eT*eG*eT*eA*e[5mC]*eA*eA*eT*eG*e[5mC]*eT*eG*e[5mC]*eT) [compound 327910]
3. 346686 (CUUCAGUUAUCACAGUACUGUA; all 2'-MOE, all phosphorothioate, methylation of C and T or U not given here) [compound 346686]
4. 340348 (antisense CTACCTGCACGAACAGCACTTT; all 2'-MOE, all phosphorothioate, methylation of C not given here) [compound 340348]
5. 327962 (antisense eG*e[5mC]*eT*eG*eA*eG*eA*eG*eT*eG*eT*eA*eG*eG*eA*eT*eG*eT*eT*eT*eA*e[5mC]*eA) [compound 327962]

## Result
["87 percentage of untreated control (UTC)", "32 percentage of untreated control (UTC)", "80 percentage of untreated control (UTC)", "57 percentage of untreated control (UTC)", "77 percentage of untreated control (UTC)"]

For each entry beneath this line, provide reported HSL mRNA.
1. 346909 (UCACCAAAACAUGGAAGCACUUA; all 2'-MOE, all phosphorothioate, methylation of C and T or U not given here) [compound 346909]
2. 344617 (GACGGGUGCGAUUUCUGUGUGAGA; all 2'-MOE, all phosphorothioate, methylation of C and T or U not given here) [compound 344617]

## Result
1: 64 percentage of untreated control (UTC); 2: 55 percentage of untreated control (UTC)

----------
Please provide measured aneuploid (percentage of cells) for the entries that follow.
tested on: BJ, B16-F10, T47D, T47Dp53 and HeLa cells; experiment: Cell cycle assay (propidium iodide flow cytometry), cell line panel; format: cell-based; details: 150 nM oligomeric compound, 4.5 μg/ml LIPOFECTIN, after 72 hours, propidium iodide flow cytometry
In the oligonucleotide strings, read from the 5' end, every base follows the letter of its sugar. An asterisk marks phosphorothioate; unmarked linkages are phosphodiester. Other units and linkages are bracketed, terminal groups are in braces. A string of capitals states the bases alone. e = 2'-O-(2-methoxyethyl) (MOE); [5mC] = 5-methylcytosine; d = 2'-deoxy (DNA)
Give bare numbers, in %.

Here's what some known entries look like.
INSERT INTO results (substance, subject_of_test, result_unit, readout_number) VALUES
  ('328423 (antisense e[5mC]*e[5mC]*eA*e[5mC]*eA*dT*dA*dT*dA*d[5mC]*dA*dT*dA*dT*dA*eT*eA*e[5mC]*eG*e[5mC]) [compound 328423]', 'BJ, B16-F10, T47D, T47Dp53 and HeLa cells', '%', 15.3),
  ('340348 (antisense CTACCTGCACGAACAGCACTTT; all 2''-MOE, all phosphorothioate, methylation of C not given here) [compound 340348]', 'BJ, B16-F10, T47D, T47Dp53 and HeLa cells', '%', 12.3);

## Task What value of aneuploid (percentage of cells) has been recorded for this entry: 328773 (antisense eT*eA*e[5mC]*eT*eT*dT*dA*d[5mC]*dT*d[5mC]*d[5mC]*dA*dA*dG*dG*eT*eT*eT*eT*eA) [compound 328773]
## Result 11.7
